protocol-notes: 4 h pharmacokinetic pilot study in wild-type, Abcb1a/1b;Abcg2-/- and Slco1a/1b-/- mice
Type: in vivo
run-parameters: male, FVB background, wild-type, mouse, in vivo, po, 10 mg/kg
measured-property: Tmax

In: Fill in the blank: the reported Tmax of COc1ccc(CN2C3CC2CN(c2ccc(-c4cc(OCC(C)(C)O)cn5ncc(C#N)c45)cn2)C3)cn1 is ____.
Out: 1.8 h

----------
protocol-notes: 2 h pharmacokinetic study with or without elacridar in wild-type and Abcb1a/1b;Abcg2-/- mice
Assay type: in vivo
run-parameters: Abcb1a/1b;Abcg2-/- (>99% FVB genetic background), mouse, brain; male Abcb1a/1b;Abcg2-/- mice, vehicle, 10 mg/kg oral, 2 h; read-out: Cbrain
measured-property: concentration at 2 h (ng/g)
Answer in ng/g, number only, no unit symbol.

In: I have this compound here, COc1ccc(CN2C3CC2CN(c2ccc(-c4cc(OCC(C)(C)O)cn5ncc(C#N)c45)cn2)C3)cn1 , and I need its recorded concentration at 2 h.
Out: 4730
